B1: KCNK9 (parent)
chain: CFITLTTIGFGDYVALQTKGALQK

- Variants of: B1
- assay.details: protein stability index of a GFP-peptide fusion (GPS, HEK-293T) (PSI 1-6); higher = more stable;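 further: lentivirally expressed fusions sorted by FACS into six bins by GFP to DsRed ratio, PSI derived from sequencing read proportions per bin multiplied by bin number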
- assay.setup: c terminus: a fixed tail appended
As shown below, each of these variants has a reported protein stability index value.

[[record]]
variant_id = "A21C"
assay_readout = "protein stability index"
experimental_value = 3.22

[[record]]
variant_id = "K19Q"
assay_readout = "protein stability index"
experimental_value = 2.16

[[record]]
variant_id = "L5M"
assay_readout = "protein stability index"
experimental_value = 2.65

[[record]]
variant_id = "F10L"
assay_readout = "protein stability index"
experimental_value = 2.73

[[record]]
variant_id = "Q17K"
assay_readout = "protein stability index"
experimental_value = 2.82


Record summary for "T6H" : reported protein stability index = 1.44

Record summary for "F10C" : reported protein stability index = 2.79

Record summary for "T4S" : reported protein stability index = 3.03

Record summary for "K24C" : reported protein stability index = 2.9

Record summary for "Y13C" : reported protein stability index = 3.93
